test: Drug level in human cystic fibrosis patient serum at 2000 mg/20 mins infusion
Format: ADME, cell-free
cond: iv, read-out: Drug uptake
testReadout: concentration at 20 min (µg/mL)
Give a bare numeral; the unit µg/mL is implied.

Could you share which concentration at 20 min value was measured for C[C@H]1[C@H](NC(=O)/C(=N\OC(C)(C)C(=O)O)c2csc(N)n2)C(=O)N1S(=O)(=O)O ? 228

###

test: Drug level in healthy human serum at 2000 mg/20 mins infusion
Assay type: ADME, cell-free
cond: iv, read-out: Drug uptake
testReadout: concentration at 20 min (µg/mL)
Supply the numeric figure in µg/mL, leaving out any unit text.

Would you kindly share the measured concentration at 20 min for C[C@H]1[C@H](NC(=O)/C(=N\OC(C)(C)C(=O)O)c2csc(N)n2)C(=O)N1S(=O)(=O)O ? 242
